In this section we review reported pIC50 values for a set of compounds.
- Target Under Test: Human Factor D (Homo sapiens (Human), UniProt P00746)
- Sequence (P00746 26-253): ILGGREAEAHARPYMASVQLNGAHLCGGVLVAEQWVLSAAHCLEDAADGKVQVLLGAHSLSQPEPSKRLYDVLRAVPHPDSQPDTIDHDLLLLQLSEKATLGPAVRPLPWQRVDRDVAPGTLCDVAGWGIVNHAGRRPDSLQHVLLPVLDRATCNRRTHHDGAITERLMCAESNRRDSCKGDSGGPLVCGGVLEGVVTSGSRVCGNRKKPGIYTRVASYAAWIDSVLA
- Test Name: Human Factor D Assay
- Format: biochemical
- Particulars: Human Factor D 80 nM, substrate Z-L-Lys-SBzl; read-out: IC50
pIC50: −log10 of the molar value.

Compound String | pIC50
NC(=O)c1nn(CC(=O)N2[C@@H]3C[C@@H]3C[C@H]2C(=O)Nc2cccc(-c3ccccc3Cl)c2F)c2ccc(-c3ccc(F)nc3)cc12 | > 6.00
CC(=O)c1cn(CC(=O)N2C[C@H](F)C[C@H]2C(=O)Nc2cccc(-c3ccccc3Cl)c2F)c2ccc(-c3ccc(C)nc3)cc12 | > 6.00
NC(=O)c1nn(CC(=O)N2C[C@H](F)C[C@H]2C(=O)Nc2cccc(-c3ccccc3Cl)c2F)c2ccc(-c3cn[nH]c3)cc12 | > 6.00
NC(=O)c1nn(CC(=O)N2C[C@H](F)C[C@H]2C(=O)Nc2nc(-c3cccc(Cl)c3)ns2)c2ccc(-c3ccnnc3)cc12 | < 5.00
NC(=O)c1nn(CC(=O)N2C[C@H](F)C[C@H]2C(=O)Nc2cccc(OCc3ccccc3)n2)c2ccc(-c3ccnnc3)cc12 | < 5.00
CC(=O)c1cn(CC(=O)N2C[C@H](F)C[C@H]2C(=O)Nc2cccc(Br)n2)c2ccc(-c3ccc(C)nc3)cc12 | > 6.00
